experimentalTarget: Cytochrome P450 2C19 (Homo sapiens, UniProt P33261)
Sequence (P33261 whole entry): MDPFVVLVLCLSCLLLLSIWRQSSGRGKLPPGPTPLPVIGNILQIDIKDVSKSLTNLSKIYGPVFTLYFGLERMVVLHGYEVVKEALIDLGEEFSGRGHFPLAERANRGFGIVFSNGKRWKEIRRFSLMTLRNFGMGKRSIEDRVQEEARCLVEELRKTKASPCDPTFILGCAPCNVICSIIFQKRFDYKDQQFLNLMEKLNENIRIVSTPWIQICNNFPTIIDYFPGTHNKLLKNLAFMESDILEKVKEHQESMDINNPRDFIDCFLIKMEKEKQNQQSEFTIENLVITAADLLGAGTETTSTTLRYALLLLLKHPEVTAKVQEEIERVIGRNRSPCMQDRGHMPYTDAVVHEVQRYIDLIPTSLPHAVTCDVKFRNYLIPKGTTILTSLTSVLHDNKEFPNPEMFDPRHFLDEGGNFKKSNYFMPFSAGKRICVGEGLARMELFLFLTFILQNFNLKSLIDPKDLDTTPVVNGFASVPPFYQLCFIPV
quantityMeasured: IC50

// fetch Cytochrome P450 2C19 (Homo sapiens, UniProt P33261) IC50 for O=C1CC[C@H](N2Cc3c(ccc4c3OCC43CCN(C[C@@H]4CCC5(CCN(c6ccc([C@@H]7c8ccc(O)cc8CC[C@@H]7c7ccccc7)cc6)CC5)OC4)CC3)C2=O)C(=O)N1 6 µM

====

experimentalTarget: UniProt P10635
Sequence (P10635 whole entry): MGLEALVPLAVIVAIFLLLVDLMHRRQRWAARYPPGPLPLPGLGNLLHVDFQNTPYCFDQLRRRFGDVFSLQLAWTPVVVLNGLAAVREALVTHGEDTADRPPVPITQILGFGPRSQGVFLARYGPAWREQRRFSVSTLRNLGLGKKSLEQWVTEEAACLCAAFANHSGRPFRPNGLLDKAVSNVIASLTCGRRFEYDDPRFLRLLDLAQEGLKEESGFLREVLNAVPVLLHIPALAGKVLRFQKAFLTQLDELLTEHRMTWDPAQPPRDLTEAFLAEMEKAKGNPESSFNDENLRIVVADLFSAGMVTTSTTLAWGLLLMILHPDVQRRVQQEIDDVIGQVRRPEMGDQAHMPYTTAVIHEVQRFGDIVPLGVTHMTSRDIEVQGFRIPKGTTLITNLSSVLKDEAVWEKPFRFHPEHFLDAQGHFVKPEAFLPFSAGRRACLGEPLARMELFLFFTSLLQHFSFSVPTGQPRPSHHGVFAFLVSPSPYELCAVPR
pIC50: −log10 of the molar value.
quantityMeasured: pIC50

I have this compound here, O=C1CC[C@H](N2Cc3c(ccc4c3OCC43CCN(C[C@@H]4CCC5(CCN(c6ccc([C@@H]7c8ccc(O)cc8CC[C@@H]7c7ccccc7)cc6)CC5)OC4)CC3)C2=O)C(=O)N1 , and I need its recorded pIC50. < 5.00

====

testDescription: AUC (0 to infinity) in dog at 3 mg/kg, po or 1 mg/kg, iv measured upto 24 hrs by LC-MS/MS analysis
Assay type: ADME, organism-based, Canis lupus familiaris
runConditions: in vivo
quantityMeasured: AUC(0-inf) (ng·h/mL)
The figure you give is taken to be in ng·h/mL; do not add the unit.

I have this compound here, O=C1CC[C@H](N2Cc3c(ccc4c3OCC43CCN(C[C@@H]4CCC5(CCN(c6ccc([C@@H]7c8ccc(O)cc8CC[C@@H]7c7ccccc7)cc6)CC5)OC4)CC3)C2=O)C(=O)N1 , and I need its recorded AUC(0-inf). 15500

====

Below, each entry is listed with its recorded Emax.
experimentalTarget: Protein cereblon/Estrogen receptor (Homo sapiens, UniProt P03372+Q96SW2)
testDescription: PROTAC activity at CRBN/ERalpha in human MCF7 cells assessed as reduction in ERalpha protein level measured after 12 hrs by Western blot analysis relative to control
Type: cell-based
Sequence (P03372 whole entry, looked up): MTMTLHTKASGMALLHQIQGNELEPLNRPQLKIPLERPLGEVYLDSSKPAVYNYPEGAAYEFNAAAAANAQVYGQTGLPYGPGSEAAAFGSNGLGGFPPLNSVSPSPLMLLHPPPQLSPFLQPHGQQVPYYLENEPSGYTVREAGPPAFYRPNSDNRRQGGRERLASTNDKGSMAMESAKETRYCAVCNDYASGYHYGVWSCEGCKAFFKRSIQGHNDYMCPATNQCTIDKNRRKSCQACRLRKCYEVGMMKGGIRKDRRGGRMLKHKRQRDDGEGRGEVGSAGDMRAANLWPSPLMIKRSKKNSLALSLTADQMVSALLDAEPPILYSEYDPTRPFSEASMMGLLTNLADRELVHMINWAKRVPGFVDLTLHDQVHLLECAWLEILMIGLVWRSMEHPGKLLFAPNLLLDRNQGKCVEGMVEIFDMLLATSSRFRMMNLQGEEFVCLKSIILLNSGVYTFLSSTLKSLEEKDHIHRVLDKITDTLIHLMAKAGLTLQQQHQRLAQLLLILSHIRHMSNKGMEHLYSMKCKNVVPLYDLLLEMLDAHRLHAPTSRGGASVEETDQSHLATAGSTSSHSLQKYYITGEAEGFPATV
Sequence (Q96SW2 whole entry, looked up): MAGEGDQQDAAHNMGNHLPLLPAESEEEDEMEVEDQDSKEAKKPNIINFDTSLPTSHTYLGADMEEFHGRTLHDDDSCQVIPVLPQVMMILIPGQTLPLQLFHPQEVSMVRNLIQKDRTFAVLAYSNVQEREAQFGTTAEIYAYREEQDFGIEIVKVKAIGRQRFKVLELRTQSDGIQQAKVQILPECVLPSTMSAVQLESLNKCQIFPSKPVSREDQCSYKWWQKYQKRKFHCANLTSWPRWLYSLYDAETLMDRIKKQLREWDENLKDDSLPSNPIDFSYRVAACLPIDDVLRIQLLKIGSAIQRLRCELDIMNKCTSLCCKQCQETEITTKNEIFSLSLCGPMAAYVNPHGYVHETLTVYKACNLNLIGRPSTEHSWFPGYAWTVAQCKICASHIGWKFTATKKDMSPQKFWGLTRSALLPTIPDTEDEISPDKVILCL
The figure you give is taken to be in %; do not add the unit.

>>> value("O=C1CC[C@H](N2Cc3c(ccc4c3OCC43CCN(CC4CCC5(CCN(c6ccc([C@@H]7c8ccc(O)cc8CC[C@@H]7c7ccccc7)cc6)CC5)O4)CC3)C2=O)C(=O)N1 (some centres undefined)")
86

I have this compound here, O=C1CC[C@H](N2Cc3c(ccc4c3OCC43CCN(CC4COC5(CCN(c6ccc([C@@H]7c8ccc(O)cc8CC[C@@H]7c7ccccc7)cc6)CC5)OC4)CC3)C2=O)C(=O)N1 , and I need its recorded Emax. 100

I have this compound here, O=C1CC[C@H](N2Cc3c(ccc4c3OCC43CCN(C(=O)CN4CC5(C4)CN(c4ccc([C@@H]6c7ccc(O)cc7CC[C@@H]6c6ccccc6)cc4)C5)CC3)C2=O)C(=O)N1 , and I need its recorded Emax. 99

I have this compound here, O=C1CC[C@H](N2Cc3c(ccc4c3OCC43CCN(C(=O)CN4CCCC5(CCN(c6ccc([C@@H]7c8ccc(O)cc8CC[C@@H]7c7ccccc7)cc6)CC5)C4)CC3)C2=O)C(=O)N1 , and I need its recorded Emax. 95

====

experimentalTarget: Cytochrome P450 3A4 (Homo sapiens, UniProt P08684)
Sequence (P08684 whole entry): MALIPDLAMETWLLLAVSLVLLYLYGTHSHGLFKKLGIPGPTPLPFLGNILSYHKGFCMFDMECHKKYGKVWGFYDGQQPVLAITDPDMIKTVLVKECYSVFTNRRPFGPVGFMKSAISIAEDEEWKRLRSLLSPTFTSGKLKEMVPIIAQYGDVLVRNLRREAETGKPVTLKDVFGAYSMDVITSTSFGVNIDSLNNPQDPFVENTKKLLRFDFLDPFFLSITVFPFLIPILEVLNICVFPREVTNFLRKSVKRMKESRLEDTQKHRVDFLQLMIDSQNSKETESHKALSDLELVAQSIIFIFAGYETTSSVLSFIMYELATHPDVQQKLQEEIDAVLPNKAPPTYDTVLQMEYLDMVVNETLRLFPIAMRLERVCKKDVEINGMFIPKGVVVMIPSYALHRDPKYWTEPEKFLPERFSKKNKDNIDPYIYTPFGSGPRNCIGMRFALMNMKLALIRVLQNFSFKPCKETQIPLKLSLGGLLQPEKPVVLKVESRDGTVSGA
testDescription: Inhibition of CYP3A4 in human liver microsomes using midazolam as substrate preincubated for 5 mins followed by NADPH addition and measured after 10 mins by LC-MS/MS analysis
Type: ADME, Microsome
quantityMeasured: IC50

I have this compound here, O=C1CC[C@H](N2Cc3c(ccc4c3OCC43CCN(C[C@@H]4CCC5(CCN(c6ccc([C@@H]7c8ccc(O)cc8CC[C@@H]7c7ccccc7)cc6)CC5)OC4)CC3)C2=O)C(=O)N1 , and I need its recorded IC50. > 10 µM

====

testDescription: Drug concentration in SCID mouse tumor at 30 mg/kg, po administered daily for 3 days and measured after 24 hrs by LC-MS/MS analysis
Format: ADME, organism-based, Neoplasm
runConditions: read-out: Ct
quantityMeasured: concentration at 96 h (ng/mL)
The figure you give is taken to be in ng/mL; do not add the unit.

I have this compound here, O=C1CC[C@H](N2Cc3c(ccc4c3OCC43CCN(C[C@@H]4CCC5(CCN(c6ccc([C@@H]7c8ccc(O)cc8CC[C@@H]7c7ccccc7)cc6)CC5)OC4)CC3)C2=O)C(=O)N1 , and I need its recorded concentration at 96 h. 1090

====

experimentalTarget: Cytochrome P450 3A4 (Homo sapiens, UniProt P08684)
testDescription: Inhibition of CYP3A4 in human liver microsomes using testosterone as substrate preincubated for 5 mins followed by NADPH addition and measured after 10 mins by LC-MS/MS analysis
Format: ADME, Microsome
pIC50: −log10 of the molar value.
quantityMeasured: pIC50

I have this compound here, O=C1CC[C@H](N2Cc3c(ccc4c3OCC43CCN(C[C@@H]4CCC5(CCN(c6ccc([C@@H]7c8ccc(O)cc8CC[C@@H]7c7ccccc7)cc6)CC5)OC4)CC3)C2=O)C(=O)N1 , and I need its recorded pIC50. < 5.00

====

testDescription: Drug concentration in SCID mouse tumor at 10 mg/kg, po administered daily for 3 days and measured after 6 hrs by LC-MS/MS analysis
Assay type: ADME, organism-based, Neoplasm
runConditions: time 3 day, read-out: Ct
quantityMeasured: concentration at 72 h
Please append the unit to your numeric answer.

I have this molecule here, O=C1CC[C@H](N2Cc3c(ccc4c3OCC43CCN(C[C@@H]4CCC5(CCN(c6ccc([C@@H]7c8ccc(O)cc8CC[C@@H]7c7ccccc7)cc6)CC5)OC4)CC3)C2=O)C(=O)N1 , and I need its recorded concentration at 72 h. 975 ng/mL

====

testDescription: Drug concentration in SCID mouse plasma at 10 mg/kg, po administered daily for 3 days and measured after 6 hrs by LC-MS/MS analysis
Type: ADME, organism-based
quantityMeasured: concentration at 78 h (ng/mL)
The figure you give is taken to be in ng/mL; do not add the unit.

I have this compound here, O=C1CC[C@H](N2Cc3c(ccc4c3OCC43CCN(C[C@@H]4CCC5(CCN(c6ccc([C@@H]7c8ccc(O)cc8CC[C@@H]7c7ccccc7)cc6)CC5)OC4)CC3)C2=O)C(=O)N1 , and I need its recorded concentration at 78 h. 380

====

testDescription: Drug concentration in SCID mouse plasma at 10 mg/kg, po administered once daily for 3 days measured after 24 hrs by LC-MS/MS analysis
Assay type: ADME, organism-based
quantityMeasured: concentration at 96 h

I have this compound here, O=C1CC[C@H](N2Cc3c(ccc4c3OCC43CCN(C[C@@H]4CCC5(CCN(c6ccc([C@@H]7c8ccc(O)cc8CC[C@@H]7c7ccccc7)cc6)CC5)OC4)CC3)C2=O)C(=O)N1 , and I need its recorded concentration at 96 h. 18 ng/mL

====

testDescription: Drug concentration in female Sprague-Dawley rat plasma at 3 mg/kg, po measured at 24 hrs by LC-MS analysis
Format: ADME, organism-based
quantityMeasured: concentration at 24 h

Some solved entries appear below for comparison.
>>> value("O=C1CC[C@H](N2Cc3c(ccc4c3OCC43CCN(CC(=O)N4CC5(CCN(c6ccc([C@@H]7c8ccc(O)cc8CC[C@@H]7c7ccccc7)cc6)CC5)C4)CC3)C2=O)C(=O)N1")
"< 5 ng/mL"
>>> value("O=C1CC[C@H](N2Cc3c(ccc4c3OCC43CCN(C(=O)CN4CCC5(CC4)CN(c4ccc([C@@H]6c7ccc(O)cc7CC[C@@H]6c6ccccc6)cc4)C5)CC3)C2=O)C(=O)N1")
"< 5 ng/mL"

// moving on: another record for concentration at 24 h
I have this molecule here, O=C1CC[C@H](N2Cc3c(ccc4c3OCC43CCN(CC(=O)N4CCC5(CC4)CN(c4ccc([C@@H]6c7ccc(O)cc7CC[C@@H]6c6ccccc6)cc4)C5)CC3)C2=O)C(=O)N1 , and I need its recorded concentration at 24 h. < 5 ng/mL

====

experimentalTarget: Protein cereblon/Estrogen receptor (Homo sapiens, UniProt P03372+Q96SW2)
testDescription: PROTAC activity at CRBN/ERalpha in human MCF7 cells assessed as reduction in ERalpha protein level measured after 12 hrs by Western blot analysis
Format: cell-based
Sequence (P03372 whole entry): as the sequence (P03372 whole entry, looked up) above
Sequence (Q96SW2 whole entry): as the sequence (Q96SW2 whole entry, looked up) above
Below, each entry is listed with its recorded DC50.
The figure you give is taken to be in pM; do not add the unit.

>>> value("O=C1CC[C@H](N2Cc3c(ccc4c3OCC43CCN(C(=O)CN4CC5(CCN(c6ccc([C@@H]7c8ccc(O)cc8CC[C@@H]7c7ccccc7)cc6)CC5)C4)CC3)C2=O)C(=O)N1")
18

// moving on: another record for DC50
I have this compound here, O=C1CC[C@H](N2Cc3c(ccc4c3OCC43CCN(C(=O)C4CCN(c5ccc([C@@H]6c7ccc(O)cc7CC[C@@H]6c6ccccc6)cc5)CC4)CC3)C2=O)C(=O)N1 , and I need its recorded DC50. 28

====

experimentalTarget: Voltage-gated inwardly rectifying potassium channel KCNH2 (Homo sapiens, UniProt Q12809)
Sequence (Q12809 whole entry): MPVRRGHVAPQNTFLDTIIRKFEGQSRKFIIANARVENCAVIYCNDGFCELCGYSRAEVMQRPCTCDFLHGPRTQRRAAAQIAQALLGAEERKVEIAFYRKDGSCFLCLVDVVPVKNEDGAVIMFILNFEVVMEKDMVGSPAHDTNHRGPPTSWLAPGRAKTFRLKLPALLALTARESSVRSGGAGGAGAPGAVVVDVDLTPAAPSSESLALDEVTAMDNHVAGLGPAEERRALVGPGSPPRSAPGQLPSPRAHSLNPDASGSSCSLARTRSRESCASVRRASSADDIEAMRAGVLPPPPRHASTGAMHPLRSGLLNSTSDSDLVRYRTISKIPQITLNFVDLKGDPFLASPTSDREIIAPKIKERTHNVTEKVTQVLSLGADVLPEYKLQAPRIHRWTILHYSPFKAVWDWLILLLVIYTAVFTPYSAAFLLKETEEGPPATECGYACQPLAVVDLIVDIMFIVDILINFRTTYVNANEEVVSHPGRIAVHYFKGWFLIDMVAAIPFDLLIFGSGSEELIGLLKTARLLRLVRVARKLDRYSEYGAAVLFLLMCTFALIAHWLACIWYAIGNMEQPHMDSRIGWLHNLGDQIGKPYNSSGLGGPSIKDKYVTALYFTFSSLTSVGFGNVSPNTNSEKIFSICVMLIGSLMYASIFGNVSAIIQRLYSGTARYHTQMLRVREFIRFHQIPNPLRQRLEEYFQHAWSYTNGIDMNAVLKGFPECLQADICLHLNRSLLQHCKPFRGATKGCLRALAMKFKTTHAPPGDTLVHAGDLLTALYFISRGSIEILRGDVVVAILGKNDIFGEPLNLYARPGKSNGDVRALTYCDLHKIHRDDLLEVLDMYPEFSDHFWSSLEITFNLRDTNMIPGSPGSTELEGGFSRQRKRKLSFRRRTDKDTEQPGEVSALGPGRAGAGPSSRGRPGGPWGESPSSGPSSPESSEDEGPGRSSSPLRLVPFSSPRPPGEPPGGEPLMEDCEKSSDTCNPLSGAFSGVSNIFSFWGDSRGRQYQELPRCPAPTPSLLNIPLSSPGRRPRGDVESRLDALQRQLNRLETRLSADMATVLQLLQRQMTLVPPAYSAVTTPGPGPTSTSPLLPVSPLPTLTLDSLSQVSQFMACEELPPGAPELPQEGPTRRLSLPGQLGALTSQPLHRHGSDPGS
testDescription: Inhibition of hERG in HEK293 cells by whole-cell patch clamp assay
pIC50: −log10 of the molar value.
quantityMeasured: pIC50

I have this compound here, O=C1CC[C@H](N2Cc3c(ccc4c3OCC43CCN(C[C@@H]4CCC5(CCN(c6ccc([C@@H]7c8ccc(O)cc8CC[C@@H]7c7ccccc7)cc6)CC5)OC4)CC3)C2=O)C(=O)N1 , and I need its recorded pIC50. < 5.00
